B1: PDLIM7 (parent)
chain: AAGGVPGGGSNNGKTPVCHQCHKV

Variants of: B1
METHOD_SUMMARY: protein stability index of a GFP-peptide fusion (GPS, HEK-293T) (PSI 1-6); higher = more stable;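 note: lentivirally expressed fusions sorted by FACS into six bins by GFP to DsRed ratio, PSI derived from sequencing read proportions per bin multiplied by bin number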
CONDITION_INFO: c terminus: a fixed tail appended
Binary classification by protein stability index, with 4 as an inclusive lower bound for 1.0; all other cases are 0.0.

>>> cat("G8C")
0.0
>>> cat("A1K")
0.0
>>> cat("P6G")
0.0
>>> cat("G9D")
1.0
>>> cat("G8S")
0.0
>>> cat("G7Y")
0.0
>>> cat("S10T")
0.0
>>> cat("G3I")
0.0
>>> cat("A1P")
0.0
>>> cat("P6M")
1.0
>>> cat("G9H")
0.0
>>> cat("P6Q")
0.0
>>> cat("A2R")
0.0
>>> cat("G9W")
0.0
>>> cat("G9I")
0.0
>>> cat("G7P")
0.0
>>> cat("G8R")
0.0
>>> cat("G9Q")
0.0
>>> cat("P6E")
1.0
>>> cat("A2L")
0.0
>>> cat("G8V")
0.0
>>> cat("S10I")
0.0
>>> cat("G7M")
0.0
>>> cat("G8K")
0.0
>>> cat("G3Y")
0.0
>>> cat("P6I")
0.0
>>> cat("A1D")
1.0
>>> cat("G8H")
0.0
>>> cat("S10H")
0.0
>>> cat("P6F")
0.0
>>> cat("A1W")
0.0
>>> cat("G8D")
1.0
>>> cat("G9L")
0.0
>>> cat("A2Q")
1.0
>>> cat("G9P")
0.0
>>> cat("G9N")
0.0
>>> cat("A1R")
0.0
>>> cat("G8I")
0.0
>>> cat("S10Q")
0.0
>>> cat("A2E")
1.0
>>> cat("A1T")
0.0
>>> cat("P6W")
0.0
>>> cat("G7D")
1.0
